Reference source: PubChem BioAssay (NCI)

# Test system: SF-295 CNS
# protocol-notes: NCI tumour cell line growth inhibition, 48 h; in the data active means GI50 below about 0.43 µM; inactive means the rest
Pick one and only one: active, inactive

Check out these entries, answers already filled in.
{"given-smiles": "Cc1cc(C2=NNC(=O)Cc3cc4c(cc32)OCCO4)cc(C)c1N", "assigned-class": "inactive"}
{"given-smiles": "O=[N+]([O-])c1ccc2c(N3CCC(CCCC4CCN(c5ncnc6cc([N+](=O)[O-])ccc56)CC4)CC3)ncnc2c1", "assigned-class": "inactive"}
{"given-smiles": "CC(C)(C)c1[nH]cnc1/C=c1\\[nH]c(=O)/c(=C/c2ccccc2)[nH]c1=O", "assigned-class": "active"}
{"given-smiles": "Cc1cnc(/C=N\\NC(N)=S)c2cccc(N)c12", "assigned-class": "inactive"}

Next:
Name the outcome recorded for "O=C(CN1CCN(c2ccc(Cl)cc2)CC1)N1CCN(c2nnc(-c3ccc(Cl)cc3)c(-c3ccc(Cl)cc3)n2)CC1" in the assay.
inactive
